Read-out: Intercellular Adhesion Molecule 1 (ICAM1), ICAM1 (gene 3383)
experiment summary: LTEA_HepaRG_ICAM1: Life Technologies and Expression Analysis (LTEA) Assay for Intercellular Adhesion Molecule 1 (ICAM1) using HepaRG (AID 2283507)
settings: mRNA level, 48 h; actives raise or lower the signal
Active and inactive are the calls of the source. How the source made its calls: active means hit-call score of the fitted dose curve at least 0.9, where 1 is the maximum; inactive means score below 0.9.
Outcomes you can answer with include only these: 1.0 for active, 0.0 for inactive

Below are worked cases with known answers.
QUERY: Recorded test outcome, item CCn1nc(Cc2ccccc2)cc1C1CCN(C[C@H]2C[C@H](N(C)[C@@H](C(=O)O)C(C)C)C[C@@H]2c2cccc(F)c2)CC1
RESULT: 1.0

QUERY: I'd appreciate the recorded outcome for CC(C)CCO from this test.
RESULT: 0.0

QUERY: Called result for O=P(OC(CCl)CCl)(OC(CCl)CCl)OC(CCl)CCl
RESULT: 1.0

QUERY: Per the records of this test, what outcome belongs to CCOCCO ?
RESULT: 0.0

QUERY: Hey, what did the test say about CCOC(=O)COc1ccc2c(c1)CC(NCC(O)c1cccc(Cl)c1)CC2 (configuration not stated) ?
RESULT: 0.0

Further cases:
QUERY: Called result for CCOC(=O)c1ccc(C2CCC(NC[C@H](O)COc3ccc(O)c(NS(C)(=O)=O)c3)CC2)cc1 (some centres not stated)
RESULT: 0.0

QUERY: Tell me the recorded outcome of this test for Cc1ccc(O)cc1 .
RESULT: 0.0

QUERY: Could you check what this test reported for CCOc1cccc(-n2cc(C(=O)N3CCN(c4cc(C(=O)O)c5ccccc5c4)CC3)nc2-c2ccc(C)cc2)c1 ?
RESULT: 0.0

QUERY: Look up the recorded call for CCc1cc(SCc2sc(-c3ccc(C(F)(F)F)cc3)nc2CN2CCN(c3ccc(OC)cc3)CC2)ccc1OCC(=O)O in this test.
RESULT: 1.0

QUERY: Which result was noted for this compound in the test: COC(=O)CC(=O)OC
RESULT: 0.0

QUERY: Test call, this compound: Fc1ccccc1[C@@H](F)COC1CCC(Nc2ncnc3[nH]ncc23)CC1 (some centres not stated)
RESULT: 1.0

QUERY: So what was the verdict on CN(C)c1ccc(N=NS(=O)(=O)O)cc1 in this test?
RESULT: 0.0

====

Read-out: Signal transducer and activator of transcription 3 (Homo sapiens) (UniProt P40763)
Sequence (P40763 whole entry, looked up): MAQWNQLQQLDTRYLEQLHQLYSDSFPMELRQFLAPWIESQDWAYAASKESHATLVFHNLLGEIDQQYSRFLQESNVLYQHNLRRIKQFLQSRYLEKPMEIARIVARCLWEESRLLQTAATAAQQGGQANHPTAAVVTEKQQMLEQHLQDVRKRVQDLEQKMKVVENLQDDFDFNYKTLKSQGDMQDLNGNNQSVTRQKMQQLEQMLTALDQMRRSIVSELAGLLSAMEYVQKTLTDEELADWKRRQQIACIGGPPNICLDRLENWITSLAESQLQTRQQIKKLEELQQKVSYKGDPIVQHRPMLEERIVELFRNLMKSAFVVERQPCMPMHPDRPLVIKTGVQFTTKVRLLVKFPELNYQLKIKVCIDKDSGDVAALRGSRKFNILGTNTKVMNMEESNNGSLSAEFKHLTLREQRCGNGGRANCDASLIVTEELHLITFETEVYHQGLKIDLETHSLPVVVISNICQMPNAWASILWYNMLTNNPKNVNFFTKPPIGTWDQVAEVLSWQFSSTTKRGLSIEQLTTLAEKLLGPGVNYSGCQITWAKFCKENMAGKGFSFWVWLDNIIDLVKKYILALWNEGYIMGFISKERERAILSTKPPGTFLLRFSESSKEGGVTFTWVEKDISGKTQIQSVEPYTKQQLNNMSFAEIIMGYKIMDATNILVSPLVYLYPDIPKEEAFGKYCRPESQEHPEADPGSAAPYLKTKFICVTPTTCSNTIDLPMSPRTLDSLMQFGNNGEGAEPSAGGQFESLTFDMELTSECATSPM
experiment summary: LTEA_HepaRG_STAT3: Life Technologies and Expression Analysis (LTEA) Assay for Signal transducer and activator of transcription (STAT3) using HepaRG (AID 2283529)
settings: mRNA level, 48 h; actives raise or lower the signal
Protocol: LTEA_HepaRG is a cell based, multiplexed-readout assay that uses HepaRG, a human liver cell line, with measurements taken at 48 hours after chemical dosing on a 96-well plate.LTEA_HepaRG_STAT3 is one of 102 assay component(s) measured in the LTEA HepaRG cell culture assay. It is a marker of Cell proliferation, survival, death.Data from the assay component LTEA_HepaRG_STAT3 was analyzed into 1 endpoint. […]
Activity calls are given as the source filed them. How the source made its calls: active means hit-call score of the fitted dose curve at least 0.9, where 1 is the maximum; inactive means score below 0.9.
measured metric: outcome

Solved cases below.
The reported value for Cn1cnc([N+](=O)[O-])c1Sc1ncnc2nc[nH]c12 in terms of outcome is inactive

# compound CC[C@H]1CC[C@H](NCc2cc3c(cc2OC)[C@H]2C[C@H]2C(=O)N3C)[C@H](c2ccccc2)N1 ; its outcome = inactive

The reported outcome of the compound O=c1[nH]c2ccc(S(=O)CCN3CCC(Cc4ccc(F)cc4)CC3)cc2o1 (stereo unspecified) was inactive

outcome for Cc1ccc(N)cc1O is inactive

The compound CC(C)CCO showed outcome equal to inactive

Next:
Please fill in: outcome reported for CC(C)CC(C)(O)C#CC(C)(O)CC(C)C (stereo unspecified) = inactive
